# Test system: SARS-CoV-2 (hCoV-19/Japan/TY/WK 521/2020 strain)
# Method Summary: microbe, parasite or virus in culture
# Type: cell-based
# Protocol Conditions: Severe acute respiratory syndrome coronavirus 2, HEK-293T, 72 h, read-out: SARS-CoV-2 EC50 (50% CPE inhibitory concentration), 293T-AT; HEK293T/ACE2-TMPRSS2 cells, 3 days culture
Catalogue of EC50 values
Enter your answer as a number in µM; do not include the unit.

Some solved cases for reference:
| Structure | EC50 (µM) |
| --- | --- |
| Cl.Nc1ncnc2c([C@@H]3N[C@H](CO)[C@@H](O)[C@H]3O)cc(-c3c[nH]nn3)n12 | 5.2 |
| Cl.Nc1nc(F)nn2c([C@@H]3N[C@H](CO)[C@@H](O)[C@H]3O)cc(-c3ncc[nH]3)c12 | 49.1 |
| Cl.Nc1nc(F)nn2c([C@@H]3N[C@H](CO)[C@@H](O)[C@H]3O)cc(-c3c[nH]nn3)c12 | 3.97 |
| Cc1cnc(-c2cc([C@@H]3N[C@H](CO)[C@@H](O)[C@H]3O)n3ncnc(N)c23)o1.Cl | 38.1 |

Could you now consider this next compound?
## Task Quick check: EC50 of `Cl.[2H]C([2H])(O)[C@H]1N[C@@H](c2cc(C(N)=O)c3c(N)ncnn23)[C@H](O)[C@@H]1O` ?
## Result 0.0228

* * *

Listing: CC50 at 3 days of selected compounds
# Method Summary: Cytotoxic activity evaluation, Vero E6/TMPRSS2 cells
# Format: cell-based
# Protocol Conditions: African green monkey, no virus

| Structure | CC50 at 3 days |
| --- | --- |
| Cc1nc(-c2cc([C@@H]3N[C@H](CO)[C@@H](O)[C@H]3O)n3ncnc(N)c23)c[nH]1.Cl | > 500 µM |
| N=C(N)c1cc([C@@H]2N[C@H](CO)[C@@H](O)[C@H]2O)n2ncnc(N)c12 | > 500 µM |
| Cn1cnc(-c2cc([C@@H]3N[C@H](CO)[C@@H](O)[C@H]3O)n3ncnc(N)c23)c1 | > 500 µM |
| CCn1cc(-c2cc([C@@H]3N[C@H](CO)[C@@H](O)[C@H]3O)n3ncnc(N)c23)cn1.Cl | 444 µM |
| CN1[C@H](CO)[C@@H](O)[C@@H](O)[C@@H]1c1cc(C(N)=O)c2c(N)ncnn12.Cl | > 500 µM |
| Nc1ncnn2c([C@@H]3N[C@H](CO)[C@@H](O)[C@H]3O)cnc12 | 0.977 µM |
| Cl.Nc1nc(F)nn2c([C@@H]3N[C@H](CO)[C@@H](O)[C@H]3O)cc(-c3cc[nH]n3)c12 | > 500 µM |

# next compound below
## Task Record request: CC50 at 3 days value, item `Cl.Cl.Nc1ncnn2c([C@@H]3N[C@H](CO)[C@@H](O)[C@H]3O)cc(-c3c[nH]cn3)c12`
## Result 157 µM

* * *

Known EC50 of a selection of molecules
# Test system: SARS-CoV-2 (hCoV-19/Japan/TY/WK 521/2020 strain)
# Method Summary: microbe, parasite or virus in culture
# Format: cell-based
# Protocol Conditions: Severe acute respiratory syndrome coronavirus 2, HEK-293T, 72 h, read-out: SARS-CoV-2 EC50 (50% CPE inhibitory concentration), 293T-AT; HEK293T/ACE2-TMPRSS2 cells, 3 days culture
Return type: number; implicit unit nM.

| Molecule | System Tested | EC50 / nM |
| --- | --- | --- |
| Cc1cc(-c2cc([C@@H]3N[C@H](CO)[C@@H](O)[C@H]3O)n3nc(F)nc(N)c23)[nH]n1.Cl [Compound I-084] | SARS-CoV-2 (hCoV-19/Japan/TY/WK 521/2020 strain) | 5330 |

## Task Item: CCn1cc(-c2cc([C@@H]3N[C@H](CO)[C@@H](O)[C@H]3O)n3ncnc(N)c23)nn1.Cl [Compound I-093] Test system: SARS-CoV-2 (hCoV-19/Japan/TY/WK 521/2020 strain) Read-out: EC50 Value: ?
## Result 211000

## Task What reported EC50 corresponds to Cl.Nc1ncnn2c([C@@H]3N[C@H](CO)[C@@H](O)[C@H]3O)cc(-c3ccn(CCO)n3)c12 [Compound I-092] on SARS-CoV-2 (hCoV-19/Japan/TY/WK 521/2020 strain)?
## Result 317

## Task Give the reported EC50 for NC(=O)c1cc([C@@H]2N[C@H](CO)[C@@H](O)[C@H]2O)n2ncnc(N)c12 [Compound I-010] (system: SARS-CoV-2 (hCoV-19/Japan/TY/WK 521/2020 strain)).
## Result 39.5

* * *

# System: SARS-CoV-2 (hCoV-19/Japan/TY/WK 521/2020 strain)
# Method Summary: microbe, parasite or virus in culture
# Assay type: cell-based
# Protocol Conditions: HEK293T/ACE2-TMPRSS2 cells
Catalogue of SARS-CoV-2 SI (Selectivity Index), 293T-AT readings, one per entry.

| Structure | Reported Measurement |
| --- | --- |
| Cc1cnc(-c2cc([C@@H]3N[C@H](CO)[C@@H](O)[C@H]3O)n3ncnc(N)c23)o1.Cl | >13.1 |
| Cl.[2H]C([2H])(O)[C@H]1N[C@@H](c2cc(C(N)=O)c3c(N)ncnn23)[C@H](O)[C@@H]1O | 2769 |

## Task Look up SARS-CoV-2 SI (Selectivity Index), 293T-AT for this molecule: `Cc1c[nH]c(-c2cc([C@@H]3N[C@H](CO)[C@@H](O)[C@H]3O)n3ncnc(N)c23)n1`
## Result >2.29

* * *

# Method Summary: Cytotoxic activity evaluation, RPMI 2650 cells
# Type: cell-based
# Protocol Conditions: human, no virus, 3 to 6 days
Quantity Measured: CC50

The following compounds have reported results that may help.
| Compound | CC50 |
| --- | --- |
| Nc1ncnn2c([C@@H]3N[C@H](CO)[C@@H](O)[C@H]3O)cc(-c3cccnc3)c12 | > 500 µM |
| Nc1ncnn2c([C@@H]3N[C@H](CO)[C@@H](O)C3(F)F)ccc12 | > 500 µM |
| Cl.Nc1ncnn2c([C@@H]3N[C@H](CO)[C@@H](O)[C@H]3O)cc(B(O)O)c12 | 75.1 µM |
| Cc1cnc(-c2cc([C@@H]3N[C@H](CO)[C@@H](O)[C@H]3O)n3ncnc(N)c23)s1 | > 500 µM |
| Nc1ncnc2c([C@@H]3O[C@H](CO)[C@@H](O)[C@H]3F)c[nH]c12 | > 500 µM |
| N#CCc1cc([C@@H]2N[C@H](CO)[C@@H](O)[C@H]2O)n2ncnc(N)c12 | 102 µM |
| Nc1ncnn2c([C@@H]3N[C@H](CO)[C@@H](O)[C@H]3O)cc(-c3cncs3)c12 | > 500 µM |
| Nc1ncnc2c([C@@H]3N[C@H](CO)[C@@H](O)[C@H]3O)cc(/C=N/O)n12 | > 500 µM |

Please examine the following record next.
## Task Looking for the measured CC50 of `Cl.Cl.Nc1ncnn2c([C@@H]3N[C@H](CO)[C@@H](O)[C@H]3O)cc(-c3c[nH]cn3)c12` , can you help?
## Result 51.8 µM

* * *

# Method Summary: Lung distribution test
# Assay type: in vivo
# Protocol Conditions: rat, SD rats, 8 hours after oral administration (25 mg/kg), read-out: Prodrug form concentration (lung)
Quantity Measured: concentration at 8 h (ng/g)
State just the number; it will be interpreted in ng/g.

Below are worked cases with known answers.
| Structure | Value Unit | concentration at 8 h |
| --- | --- | --- |
| CC(C)(C)CC(=O)OC[C@H]1N[C@@H](c2cc(C(N)=O)c3c(N)ncnn23)[C@H](O)[C@@H]1O | ng/g | 12.7 |
| CCC(C)(C)C(=O)OC[C@H]1N[C@@H](c2cc(C(N)=O)c3c(N)ncnn23)[C@H](O)[C@@H]1O | ng/g | 3.85 |

Read the next record carefully.
## Task Requested field: concentration at 8 h. Item: `CC(C)(C(=O)OC[C@H]1N[C@@H](c2cc(C(N)=O)c3c(N)ncnn23)[C@H](O)[C@@H]1O)c1ccccc1`
## Result 6.41

* * *

Documented CC50 across a set of compounds
# Tested on: RPMI 2650 cells
# Method Summary: Cytotoxic activity evaluation, RPMI 2650 cells
# Format: cell-based
# Protocol Conditions: read-out: Influenza test CC50 (50% cell proliferation inhibitory concentration), no virus, 3 to 6 days

| Compound | CC50 |
| --- | --- |
| CC(O)c1cc([C@@H]2N[C@H](CO)[C@@H](O)[C@H]2O)c2ncnc(N)n12 (stereo partly shown) | > 500 µM |
| OC[C@H]1N[C@@H](c2ccc3c(NO)ncnn23)[C@H](O)[C@@H]1O | > 500 µM |
| Cn1ccc(-c2cc([C@H]3[C@@H]4OC(C)(C)O[C@@H]4[C@@H](CO)N3C(=O)OC(C)(C)C)n3ncnc(N)c23)n1 | > 500 µM |

## Task Quick one: CC50 of `Nc1ncnn2c([C@@H]3N[C@H](CO)[C@@H](O)[C@H]3O)cc(O)c12` ?
## Result > 500 µM

## Task So what does the record say about CC50 for `CC(C)(C)OC(=O)N1[C@H](CO)[C@@H](O)[C@@H](O)[C@@H]1c1cc(N)c2c(N)ncnn12` ?
## Result 310 µM

## Task # CC50 lookup, item `Nc1ncnn2c([C@@H]3O[C@](F)(CO)[C@@H](O)C3(F)F)ccc12`
## Result 432 µM

## Task Request the reported CC50 associated with `CC1(C)O[C@@H]2[C@H](O1)[C@@H](CO)N[C@H]2c1cc(/C=N/O)c2c(N)ncnn12`
## Result > 500 µM
